Source listed as the supplement of paper PMC10567573.

Would you mind telling me the reported protein stability index of each entry?
B1: CAMK2D (parent)
chain: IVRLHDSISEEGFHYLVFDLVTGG

Variants of: B1
protocol_description: protein stability index of a GFP-peptide fusion (GPS, HEK-293T) (PSI 1-6); higher = more stable;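 note: lentivirally expressed fusions sorted by FACS into six bins by GFP to DsRed ratio, PSI derived from sequencing read proportions per bin multiplied by bin number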
measurement_parameters: c terminus: a fixed tail appended
Give bare numbers.

variant | protein stability index
F18K | 2.17
I8Q | 1.69
S7T | 3.19

Hi there! I need protein stability index for each item below, if you can.
1. L4E
2. V17K
3. F13Y
4. L16N

**A:**
1: 1.69; 2: 2.56; 3: 3.07; 4: 1.5

Please state, for each entry, its recorded protein stability index.
1. V21P
2. G24Q
3. D19G
4. D6N

**A:**
2.41
2.89
2.15
1.95

Batch: protein stability index for all items listed.
1. G23C
2. Y15I
3. E11I
4. G23I

**A:**
4.08
2.54
1.56
2.57
